System: MV4-11
Experiment: CellTox Green cytotoxicity fluorescence relative to DMSO vehicle (fold of vehicle RFU); higher = more cell death (loss of membrane integrity), active = 2 or more
Settings: 0.1 µM; 24 h
readoutLabel: CellTox Green cytotoxicity fluorescence
Please state the value as a number alone, without comment.

Entry O=C(NS(=O)(=O)c1ccc(Br)s1)c1ccc(Cl)cc1Cl , CellTox Green cytotoxicity fluorescence reported as 0.99

Entry CN[C@@H](C)C(=O)N[C@H](C(=O)N1CCC[C@H]1C(=O)Nc1snnc1-c1ccccc1)C1CCCCC1 , CellTox Green cytotoxicity fluorescence reported as 0.988

Entry Cc1cccc(CC(=O)N2CCc3c2ccc(-c2cn(C)c4ncnc(N)c24)c3F)n1 , CellTox Green cytotoxicity fluorescence reported as 1.02

Entry N#CC(=Cc1ccc(-c2cc(Cl)ccc2Cl)o1)C(=O)Nc1cccc2ncccc12 , CellTox Green cytotoxicity fluorescence reported as 0.998

Entry CC[C@H](NC(=O)[C@H](C)NC)C(=O)N1C[C@@H](O)C[C@H]1Cc1c(-c2[nH]c3cc(F)ccc3c2C[C@@H]2C[C@H](O)CN2C(=O)[C@H](CC)NC(=O)[C@H](C)NC)[nH]c2cc(F)ccc12 , CellTox Green cytotoxicity fluorescence reported as 0.988
